Each entry below carries its reported NCB (Normalized Cell Binding).
- Assayed System: T1, Cynomolgus CD3 on HSC-F cells (cynomolgus, UniProt Q95LI5 22-198)
- T1 construct: whole, on cells; Target is the endogenous CD3 complex on cells; also called Cyno CD3 HSC-F cells; Cyno CD3+ HSC-F cells
- T1 sequence (Q95LI5 22-198): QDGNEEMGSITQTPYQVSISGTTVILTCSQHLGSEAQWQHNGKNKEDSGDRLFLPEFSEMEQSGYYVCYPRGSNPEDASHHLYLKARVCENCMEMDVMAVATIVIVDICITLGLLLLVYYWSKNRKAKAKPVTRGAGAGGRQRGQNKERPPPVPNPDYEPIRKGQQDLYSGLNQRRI
- Run Description: flow cytometry, 100 nM IgG1, pH 7.4
API note: the answer field is a bare number with no unit suffix.

// query Request the reported NCB (Normalized Cell Binding) associated with Antibody No. V016 (ADI-76359) IgG1 (antibody, V domains shown, IgG1, CHO-produced) VH: QVQLVQSGAEVKKPGASVKVSCKASGFDIKDYYMHWVRQAPGQRLEWMGWIDLENANTIYDAKFQGRVTITRDTSASTAYMELSSLRSEDTAVYYCGRDAYGRYFYDVWGQGTLVTVSS VL: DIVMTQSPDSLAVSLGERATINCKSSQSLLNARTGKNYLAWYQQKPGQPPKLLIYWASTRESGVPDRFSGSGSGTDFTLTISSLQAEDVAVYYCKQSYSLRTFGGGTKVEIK
// result 374

// query Note, next up: Antibody No. A002 (ADI-50024) IgG1 (antibody, V domains shown, IgG1, CHO-produced) VH: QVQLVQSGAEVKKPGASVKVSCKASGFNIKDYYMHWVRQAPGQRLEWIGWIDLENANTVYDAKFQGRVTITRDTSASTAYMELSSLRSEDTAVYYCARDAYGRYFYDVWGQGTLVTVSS VL: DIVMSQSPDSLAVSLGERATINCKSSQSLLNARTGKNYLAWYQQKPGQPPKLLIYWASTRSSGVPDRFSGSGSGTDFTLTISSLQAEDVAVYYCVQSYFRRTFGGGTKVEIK
// result 417

src = patent US20240317858A1
